The values you see were collected from patent US20220168427A1.

System: MV4-11 cells
assay: MV4-11 Cell Cytotoxicity Assay
Format: cell-based, human
experimental.setup: human, MV4-11 cells, CCK-8
For each entry below, report its IC50 at 72 h value.

Task item: Endpoint output: IC50 at 72 h of Cc1sc2c(c1C)C(c1ccc(Cl)cc1)=NC(CC(=O)N1CCC(Cc3ccc(CN(C)Cc4ccc(-n5c(C(=O)NCC(F)(F)F)nnc5-c5cc(C(C)C)c(O)cc5O)cc4)cc3)CC1)c1nnc(C)n1-2 (stereo in doubt) . Value?
Reply: < 100 nM

Task item: Would you kindly repeat that for Cc1sc2c(c1C)C(c1ccc(Cl)cc1)=N[C@@H](CC(=O)NCCc1ccc(CN3CCC(Cc4ccc(-n5c(O)nnc5-c5cc(C(C)C)c(O)cc5O)cc4)CC3)cc1)c1nnc(C)n1-2 ?
Reply: < 100 nM
